Biological target: High affinity cAMP-specific and IBMX-insensitive 3',5'-cyclic phosphodiesterase 8B (Homo sapiens, UniProt O95263)
Sequence (O95263 whole entry): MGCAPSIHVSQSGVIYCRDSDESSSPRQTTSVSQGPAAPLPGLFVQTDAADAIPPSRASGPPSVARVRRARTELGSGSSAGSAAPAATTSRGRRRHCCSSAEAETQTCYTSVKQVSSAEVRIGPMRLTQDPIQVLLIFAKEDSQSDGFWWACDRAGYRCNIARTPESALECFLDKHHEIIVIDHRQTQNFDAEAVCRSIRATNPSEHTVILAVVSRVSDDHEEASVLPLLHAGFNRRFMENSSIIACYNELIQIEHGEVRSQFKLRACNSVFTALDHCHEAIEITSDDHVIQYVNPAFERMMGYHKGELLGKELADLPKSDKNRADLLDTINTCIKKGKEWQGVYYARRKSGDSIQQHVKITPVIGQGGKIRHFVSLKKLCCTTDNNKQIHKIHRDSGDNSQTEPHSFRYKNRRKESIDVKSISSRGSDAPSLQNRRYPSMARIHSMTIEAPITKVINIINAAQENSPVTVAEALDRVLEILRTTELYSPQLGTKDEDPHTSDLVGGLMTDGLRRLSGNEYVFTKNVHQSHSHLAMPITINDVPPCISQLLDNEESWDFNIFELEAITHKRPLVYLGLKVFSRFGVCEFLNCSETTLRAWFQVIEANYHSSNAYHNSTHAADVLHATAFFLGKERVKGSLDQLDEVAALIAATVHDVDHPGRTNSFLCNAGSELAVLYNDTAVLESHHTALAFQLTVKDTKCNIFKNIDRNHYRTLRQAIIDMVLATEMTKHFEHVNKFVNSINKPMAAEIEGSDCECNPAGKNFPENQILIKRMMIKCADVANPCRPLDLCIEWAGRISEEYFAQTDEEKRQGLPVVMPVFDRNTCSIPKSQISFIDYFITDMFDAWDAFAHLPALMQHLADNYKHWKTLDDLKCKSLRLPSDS
Quantity name: IC50

So what does the record say about IC50 for "C[C@@H]1CN(Cc2ccc3nccnc3c2)C[C@H]1c1nc2c(cnn2C2CCCC2)c(=O)[nH]1" ? > 1 µM

----------
Assay: Ratio of drug level in brain to plasma of rat
Format: ADME, cell-free
Conditions: brain and plasma
Quantity name: Kp
Form rule: numeric answer, no unit written next to it.

What Kp value was documented for this compound, "C[C@@H]1CN(Cc2ccc3nccnc3c2)C[C@H]1c1nc2c(cnn2C2CCCC2)c(=O)[nH]1" ? 1.4

----------
Biological target: Dual specificity calcium/calmodulin-dependent 3',5'-cyclic nucleotide phosphodiesterase 1C (Homo sapiens, UniProt Q14123)
Sequence (Q14123 whole entry): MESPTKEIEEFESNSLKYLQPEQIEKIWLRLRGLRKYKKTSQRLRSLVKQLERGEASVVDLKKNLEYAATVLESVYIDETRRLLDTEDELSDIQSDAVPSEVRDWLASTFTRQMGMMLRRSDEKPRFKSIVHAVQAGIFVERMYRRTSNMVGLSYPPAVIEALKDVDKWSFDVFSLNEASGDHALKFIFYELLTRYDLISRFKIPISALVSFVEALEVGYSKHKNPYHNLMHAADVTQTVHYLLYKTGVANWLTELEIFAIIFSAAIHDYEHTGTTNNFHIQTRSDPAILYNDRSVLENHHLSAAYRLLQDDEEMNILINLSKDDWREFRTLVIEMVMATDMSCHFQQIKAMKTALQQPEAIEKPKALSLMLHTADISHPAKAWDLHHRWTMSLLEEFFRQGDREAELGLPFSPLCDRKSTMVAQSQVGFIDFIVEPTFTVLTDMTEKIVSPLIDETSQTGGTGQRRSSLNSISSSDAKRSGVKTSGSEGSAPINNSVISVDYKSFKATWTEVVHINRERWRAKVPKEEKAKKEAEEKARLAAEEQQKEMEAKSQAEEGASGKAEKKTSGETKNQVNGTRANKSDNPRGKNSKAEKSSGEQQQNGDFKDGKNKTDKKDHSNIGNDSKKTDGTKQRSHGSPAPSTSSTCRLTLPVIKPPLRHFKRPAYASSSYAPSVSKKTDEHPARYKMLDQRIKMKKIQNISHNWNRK
Assay: Inhibition of human recombinant PDE1C expressed in Sf9 cells by SPA
Quantity name: IC50 (µM)
Enter your answer as a number in µM; do not include the unit.

Report IC50 for C[C@H]1CN(Cc2ccc3nccnc3c2)C[C@@H]1c1nc2c(cnn2C2CCCC2)c(=O)[nH]1 (relative stereo) please. 0.073

Another compound to check: Cc1ncc(CN2C[C@@H](C)[C@H](c3nc4c(cnn4C4CCCC4)c(=O)[nH]3)C2)cn1 (relative stereo) 0.4

Okay, and "C[C@@H]1CN(Cc2ccc(C(F)(F)F)nc2)C[C@H]1c1nc2c(cnn2C2CCCC2)c(=O)[nH]1" ? 0.19

Likewise for Cc1cc(CN2C[C@@H](C)[C@H](c3nc4c(cnn4C4CCCC4)c(=O)[nH]3)C2)no1 (relative stereo) ? 0.11

What about this compound? C[C@@H]1CN(Cc2cn3ccccc3n2)C[C@H]1c1nc2c(cnn2C2CCCC2)c(=O)[nH]1 (relative stereo) 0.22

Follow-up entry: Cc1cccc(CN2C[C@@H](C)[C@H](c3nc4c(cnn4C4CCCC4)c(=O)[nH]3)C2)c1 (relative stereo) 0.563

----------
Biological target: High affinity cGMP-specific 3',5'-cyclic phosphodiesterase 9A (Homo sapiens)
Sequence (O76083 whole entry): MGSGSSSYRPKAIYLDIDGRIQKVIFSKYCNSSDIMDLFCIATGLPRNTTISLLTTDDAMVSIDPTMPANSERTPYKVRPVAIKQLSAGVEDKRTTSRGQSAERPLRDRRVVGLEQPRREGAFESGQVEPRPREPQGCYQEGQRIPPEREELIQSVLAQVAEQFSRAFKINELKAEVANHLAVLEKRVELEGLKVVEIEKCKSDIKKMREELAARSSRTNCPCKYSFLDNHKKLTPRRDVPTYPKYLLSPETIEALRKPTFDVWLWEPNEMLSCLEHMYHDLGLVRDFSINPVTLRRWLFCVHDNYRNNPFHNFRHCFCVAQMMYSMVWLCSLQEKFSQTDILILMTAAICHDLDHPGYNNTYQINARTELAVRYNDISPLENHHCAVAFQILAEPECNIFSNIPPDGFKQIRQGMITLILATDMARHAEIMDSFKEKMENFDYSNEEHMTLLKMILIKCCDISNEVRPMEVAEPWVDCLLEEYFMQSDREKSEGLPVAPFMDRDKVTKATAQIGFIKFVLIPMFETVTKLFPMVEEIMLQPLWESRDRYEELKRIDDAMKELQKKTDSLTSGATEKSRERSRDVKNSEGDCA
Assay: Inhibition of human recombinant PDE9A expressed in Sf9 cells by SPA
Details: read-out: IC50
Quantity name: IC50 (nM)
Reply with just the number (in nM).

Under High affinity cGMP-specific 3',5'-cyclic phosphodiesterase 9A (Homo sapiens): IC50 value of COc1ccc(CN2C[C@@H](C)[C@H](c3nc4c(cnn4C4CCCC4)c(=O)[nH]3)C2)cn1 (relative stereo) ? 29

Next compound: Cc1cnc(CN2C[C@@H](C)[C@H](c3nc4c(cnn4C4CCCC4)c(=O)[nH]3)C2)cn1 (relative stereo) 15

Same lookup for C[C@@H]1CN(Cc2ccccc2)C[C@H]1c1nc2c(cnn2C2CCCC2)c(=O)[nH]1 (relative stereo) , please. 63

Next compound up: C[C@@H]1CN(Cc2ccccn2)C[C@H]1c1nc2c(cnn2C2CCCC2)c(=O)[nH]1 (relative stereo) 200

----------
Please provide measured pIC50 for the entries that follow.
Biological target: UniProt O76083
Assay: Inhibition of human recombinant PDE9A expressed in Sf9 cells by SPA
Conditions: read-out: IC50
# log scale: pIC50 equals minus log10 of the concentration in mol/L

Any idea what pIC50 was measured for Cc1cc(CN2C[C@@H](C)[C@H](c3nc4c(cnn4C4CCCC4)c(=O)[nH]3)C2)no1 (relative stereo) ? 7.96

Also check CC(C)Cn1ncc2c(=O)[nH]c([C@@H]3CN(Cc4ccccc4)C[C@H]3C)nc21 (relative stereo) 6.82

Here is the next molecule: Cc1ncc(CN2C[C@@H](C)[C@H](c3nc4c(cnn4C4CCCC4)c(=O)[nH]3)C2)cn1 (relative stereo) 7.96

// same read-out, input: C[C@H]1CN(Cc2ccc3nccnc3c2)C[C@@H]1c1nc2c(cnn2C2CCCC2)c(=O)[nH]1 (relative stereo) 8.72

Now try Cc1cc(CN2C[C@@H](C)[C@H](c3nc4c(cnn4C4CCCC4)c(=O)[nH]3)C2)n(C)n1 (relative stereo) . 7.96

Repeat with Cc1cccc(CN2C[C@@H](C)[C@H](c3nc4c(cnn4C4CCCC4)c(=O)[nH]3)C2)c1 (relative stereo) 7.40

Also "C[C@@H]1CN(Cc2ccc(C(F)(F)F)nc2)C[C@H]1c1nc2c(cnn2C2CCCC2)c(=O)[nH]1" , if possible. 7.80

Okay, and "C[C@@H]1CN(Cc2ccc3nccnc3c2)C[C@H]1c1nc2c(cnn2C2CCCC2)c(=O)[nH]1" ? 8.74

Let us now turn to C[C@@H]1CN(Cc2cn3ccccc3n2)C[C@H]1c1nc2c(cnn2C2CCCC2)c(=O)[nH]1 (relative stereo) 7.92
